Entries annotated with measured s Cholester
Experiment: RP-HPLC retention on Cosmosil Cholester column, buffer pH 7.4-acetonitrile
Format: physicochemical
Settings: slope of Soczewiński-Wachtmeister equation, acetonitrile φ 0.4–0.6
Experimental: Retention parameters reported as the log k values were calculated by the expression:(1) logk=log(tR−t0)/t0 where tR and t0 are the retention times of the solute and a non-retained compound (citric acid), respectively. […] As mobile phases buffer-acetonitrile mixtures were used. […] With the ODS column acetonitrile concentration in the effluent, expressed as a volume fraction (φ, v/v), was changed in the range 0.3–0.6, with the constant step of 0.1. […] They were detected under UV light at 210 and 254 nm. […]

INSERT INTO assay_data (smiles_entry, measurement) VALUES
  ('CCOC(=O)Cc1nnc2n(c1=O)CCN2c1ccc(Cl)cc1', 4.19);

Give the measured s Cholester of Cc1ccc(N2CCn3c2nnc(Cc2cccc(C)c2)c3=O)cc1 .
5.06

Give the measured s Cholester of O=c1c(CCc2ccccc2)nnc2n1CCN2c1ccccc1 .
4.02
